# assay-target: active p38 alpha enzyme (Upstate Biotechnology) (Homo sapiens)
# Construct: purchased Upstate Biotechnology
# procedure-text: p38α biochemical assay (ATP turnover, luminescent detection, Cambrex PKlight)
# test-settings: p38α biochemical assay, Table 1 Biological Activity

| molecule | IC50 |
| --- | --- |
| CC(C)NC(=O)c1csc(-c2c(-c3ccc(F)cc3)noc2CNC(=O)Cc2ccccc2O)n1 | > 1000 nM |
| CC(C)NC(=O)c1csc(-c2c(-c3ccc(F)cc3)noc2CNC(=O)c2cc(O)ccc2[N+](=O)[O-])n1 | > 1000 nM |
| COc1cc(/C=C/C(=O)N2CCN(Cc3nc(-c4ccc(F)cc4)c(-c4nc(C(=O)NC(C)C)cs4)o3)CC2)ccc1O | ≤ 1000 nM |
| CC(C)NC(=O)c1csc(-c2oc(CN3CCNCC3)nc2-c2ccc(F)cc2)n1 [Example 44] | ≤ 1000 nM |
| CC(=O)NCC(=O)N1CCN(Cc2nc(-c3ccc(F)cc3)c(-c3nc(C(=O)NC(C)C)cs3)o2)CC1 | > 1000 nM |
| CC(C)NC(=O)c1csc(-c2c(-c3ccc(F)cc3)noc2CNC(=O)Cc2cccc(O)c2)n1 | ≤ 1000 nM |
| Cc1ccc(C(=O)NCc2nc(-c3ccc(F)cc3)c(-c3nc(C(=O)NC(C)C)cs3)o2)cc1 | > 1000 nM |
| Cc1cc(C)cc(C(=O)NCc2onc(-c3ccc(F)cc3)c2-c2nc(C(=O)NC(C)C)cs2)c1 | > 1000 nM |
| CC(C)NC(=O)c1csc(-c2oc(CN3CCN(C(=O)c4ccc5ncccc5c4)CC3)nc2-c2ccc(F)cc2)n1 | ≤ 1000 nM |
| Cc1nc(-c2ccc(F)cc2)c(-c2nc(C(=O)NCc3ccncc3)cs2)s1 | ≤ 1000 nM |
| CC(C)NC(=O)c1csc(-c2oc(CN3CCN(C(=O)C4Cc5ccccc5CN4C(=O)OC(C)(C)C)CC3)nc2-c2ccc(F)cc2)n1 (stereo not drawn) | > 1000 nM |
| Cc1cc(C(=O)NCc2onc(-c3ccc(F)cc3)c2-c2nc(C(=O)NC(C)C)cs2)ccc1Br | > 1000 nM |
| CC(C)NC(=O)c1csc(-c2oc(CN3CCN(C(=O)c4ccncc4)CC3)nc2-c2ccc(F)cc2)n1 | ≤ 1000 nM |
| Cc1ccc(C(=O)NCc2nc(-c3ccc(F)cc3)c(-c3nc(C(=O)NC(C)C)cs3)o2)cc1F | > 1000 nM |
| CC(C)NC(=O)c1csc(-c2oc(CNC(=O)c3cc([N+](=O)[O-])ccc3Cl)nc2-c2ccc(F)cc2)n1 | ≤ 1000 nM |

---

Readings of IC50 for the listed compounds
# assay-target: active p38 alpha enzyme (Upstate Biotechnology) (Homo sapiens, UniProt Q16539)
# Construct: purchased Upstate Biotechnology
# Sequence (Q16539 whole entry): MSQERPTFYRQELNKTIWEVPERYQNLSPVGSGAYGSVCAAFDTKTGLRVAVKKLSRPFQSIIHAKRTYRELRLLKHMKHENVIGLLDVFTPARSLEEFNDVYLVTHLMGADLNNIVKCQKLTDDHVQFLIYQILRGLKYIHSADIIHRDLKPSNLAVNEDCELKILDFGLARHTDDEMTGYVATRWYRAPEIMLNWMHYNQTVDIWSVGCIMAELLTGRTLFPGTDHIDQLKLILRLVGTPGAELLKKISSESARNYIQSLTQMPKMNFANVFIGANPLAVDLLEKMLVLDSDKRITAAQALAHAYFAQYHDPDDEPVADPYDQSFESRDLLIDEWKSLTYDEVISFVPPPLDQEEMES
# procedure-text: p38α biochemical assay (ATP turnover, luminescent detection, Cambrex PKlight)
# test-settings: p38α kinase; Table 1 Biological Activity

| chemical-structure | IC50 |
| --- | --- |
| CC(C)NC(=O)c1csc(-c2c(-c3ccc(F)cc3)n[nH]c2C2CCN(C(=O)c3ccccc3C(=O)c3ccc(F)cc3)CC2)n1 | > 1000 nM |
| CC(C)NC(=O)c1csc(-c2c(-c3ccc(F)cc3)n[nH]c2C2CCN(C(=O)c3cccc(Cl)c3[N+](=O)[O-])CC2)n1 | > 1000 nM |
| Cc1ccnc(NCc2onc(-c3ccc(F)cc3)c2-c2nc(C(=O)NC(C)C)cs2)c1 | > 1000 nM |
| Cc1nc(-c2ccc(F)cc2)c(-c2nc(C(=O)Nc3cccc(C(F)(F)F)c3)cs2)s1 | > 1000 nM |
| CN(C)CCNC(=O)c1csc(-c2c(-c3ccc(F)cc3)n[nH]c2C2CCNCC2)n1 | > 1000 nM |
| CC(C)NC(=O)c1csc(-c2oc(CNCCOc3ccccc3)nc2-c2ccc(F)cc2)n1 | > 1000 nM |
| O=C(NC1CCCC1)c1csc(-c2c(-c3ccc(F)cc3)ncn2C2CCNCC2)n1 | ≤ 1000 nM |

---

# assay-target: active p38 alpha enzyme (Upstate Biotechnology) (Homo sapiens)
# Construct: purchased Upstate Biotechnology
# procedure-text: p38α biochemical assay (ATP turnover, luminescent detection, Cambrex PKlight)
# test-settings: p38α kinase; Table 1 Biological Activity
pIC50: −log10 of the molar value.
Readings of pIC50 for the listed molecules
reported-property: pIC50

| molecule | endpoint-value |
| --- | --- |
| CC(C)NC(=O)c1csc(-c2oc(CNc3cc(F)cc(F)c3)nc2-c2ccc(F)cc2)n1 [Example 1330] | < 6.00 |
| Cc1nc(-c2ccc(F)cc2)c(-c2nc(C(=O)N[C@@H](C)c3ccccc3)cs2)s1 [Example 1752] | ≥ 6.00 |
| COc1ccccc1NC(=O)c1csc(-c2sc(C)nc2-c2ccc(F)cc2)n1 [Example 1974] | ≥ 6.00 |
| O=C(NCc1ccc(Cl)cc1)c1csc(-c2c(-c3ccc(F)cc3)n[nH]c2C2CCNCC2)n1 [Example 2109] | < 6.00 |
| COc1ccc(N2CCN(C(=O)c3csc(-c4sc(C)nc4-c4ccc(F)cc4)n3)CC2)cc1 [Example 1920] | < 6.00 |
| Cc1nc(-c2ccc(F)cc2)c(-c2nc(C(=O)N[C@H](CO)Cc3ccccc3)cs2)s1 [Example 1798] | ≥ 6.00 |
| CCCCN(C)Cc1nc(-c2ccc(F)cc2)c(-c2nc(C(=O)NC(C)C)cs2)o1 [Example 1194] | < 6.00 |
| CCOC(=O)CC(=O)N1CCC(c2[nH]nc(-c3ccc(F)cc3)c2-c2nc(C(=O)NC(C)C)cs2)CC1 [Example 834] | ≥ 6.00 |

---

Readings of IC50 for the listed compounds
# assay-target: active p38 alpha enzyme (Upstate Biotechnology) (Homo sapiens, UniProt Q16539)
# Construct: purchased Upstate Biotechnology
# procedure-text: p38α biochemical assay (ATP turnover, luminescent detection, Cambrex PKlight)
# test-settings: p38α biochemical assay, Table 1 Biological Activity
reported-property: IC50

| compound | reported-property | endpoint-value |
| --- | --- | --- |
| CC(C)NC(=O)c1csc(-c2oc(CN3CCN(C(=O)C(C)c4ccc(-c5ccccc5)c(F)c4)CC3)nc2-c2ccc(F)cc2)n1 (centres unmarked) [Example 561] | IC50 | > 1 µM |
| CC(C)NC(=O)c1csc(-c2oc(CN3CCN(C(=O)C(C)(C)C)CC3)nc2-c2ccc(F)cc2)n1 [Example 340] | IC50 | ≤ 1 µM |
| CCCCOc1ccc(C(=O)NCc2onc(-c3ccc(F)cc3)c2-c2nc(C(=O)NC(C)C)cs2)cc1 [Example 738] | IC50 | > 1 µM |
| CC(C)NC(=O)c1csc(-c2oc(CN3CCN(C(=O)C(Cc4ccccn4)NC(=O)OC(C)(C)C)CC3)nc2-c2ccc(F)cc2)n1 (centres unmarked) [Example 569] | IC50 | > 1 µM |
| Cc1ccc(C(=O)CCC(=O)NCc2nc(-c3ccc(F)cc3)c(-c3nc(C(=O)NC(C)C)cs3)o2)cc1 [Example 256] | IC50 | > 1 µM |
| CC(C)NC(=O)c1csc(-c2c(-c3ccc(F)cc3)noc2CNC(=O)c2cc(F)c(F)cc2[N+](=O)[O-])n1 [Example 753] | IC50 | > 1 µM |
| COc1cc(OC)c(C(=O)N2CCN(Cc3nc(-c4ccc(F)cc4)c(-c4nc(C(=O)NC(C)C)cs4)o3)CC2)c(OC)c1 [Example 520] | IC50 | ≤ 1 µM |
| CC(C)NC(=O)c1csc(-c2oc(CNC(=O)c3ccc(N(C)C=O)cc3)nc2-c2ccc(F)cc2)n1 [Example 210] | IC50 | > 1 µM |
| CC(C)NC(=O)c1csc(-c2oc(CN3CCN(C(=O)c4ccncc4Cl)CC3)nc2-c2ccc(F)cc2)n1 [Example 393] | IC50 | > 1 µM |
| Cc1nc(Br)sc1C(=O)NCc1nc(-c2ccc(F)cc2)c(-c2nc(C(=O)NC(C)C)cs2)o1 [Example 302] | IC50 | ≤ 1 µM |
| CC(C)NC(=O)c1csc(-c2oc(CNC(=O)c3cc(F)c(Cl)cc3F)nc2-c2ccc(F)cc2)n1 [Example 259] | IC50 | > 1 µM |
| Cc1cccc(C(=O)NCc2onc(-c3ccc(F)cc3)c2-c2nc(C(=O)NC(C)C)cs2)c1C [Example 611] | IC50 | > 1 µM |
| COc1ccc(OC)c(C(=O)NCc2nc(-c3ccc(F)cc3)c(-c3nc(C(=O)NC(C)C)cs3)o2)c1 [Example 224] | IC50 | > 1 µM |
| Cc1cccc(C(=O)N2CCN(Cc3nc(-c4ccc(F)cc4)c(-c4nc(C(=O)NC(C)C)cs4)o3)CC2)c1C [Example 373] | IC50 | > 1 µM |
